The measured values listed here are drawn from paper PMC10057893.

measurement description: MTT cell viability assay
Type: cell-based
protocol conditions: human, HaCaT cells (immortal keratinocytes), HaCaT normal cell line, same value in µg/mL, read-out: Cytotoxic activity IC50 (converted)
readout type: IC50 at 72 h

Q: Item under review: Cc1ccccc1C=Nn1c(-c2cccc(F)c2)n[nH]c1=S [RO10] . Reported IC50 at 72 h?
Ans: > 31.2 mg/L

Q: Item under review: COc1cccc(C=Nn2c(-c3cccc(F)c3)n[nH]c2=S)c1 [RO11] . Reported IC50 at 72 h?
Ans: > 38.8 mg/L

Q: Item under review: O=[N+]([O-])c1ccc(C=Nn2c(-c3cccc(F)c3)n[nH]c2=S)cc1 [RO3] . Reported IC50 at 72 h?
Ans: > 34.3 mg/L

Q: Item under review: CCCCOc1ccc(C=Nn2c(-c3cccc(F)c3)n[nH]c2=S)cc1 [RO8] . Reported IC50 at 72 h?
Ans: > 37 mg/L

Q: Item under review: Fc1ccc(C=Nn2c(-c3cccc(F)c3)n[nH]c2=S)cc1 [RO7] . Reported IC50 at 72 h?
Ans: > 31.6 mg/L

Q: Item under review: Cc1ccc(C=Nn2c(-c3cccc(F)c3)n[nH]c2=S)cc1 [RO1] . Reported IC50 at 72 h?
Ans: > 31.2 mg/L

Q: Item under review: COc1ccc(C=Nn2c(-c3cccc(F)c3)n[nH]c2=S)cc1 [RO4] . Reported IC50 at 72 h?
Ans: > 38.8 mg/L

Q: Item under review: COc1ccccc1C=Nn1c(-c2cccc(F)c2)n[nH]c1=S [RO12] . Reported IC50 at 72 h?
Ans: 38.1 mg/L

Q: Item under review: Cc1cccc(C=Nn2c(-c3cccc(F)c3)n[nH]c2=S)c1 [RO9] . Reported IC50 at 72 h?
Ans: > 31.2 mg/L

====

Exercise: for every item that follows, state its recorded IC50 at 72 h.
measurement description: MTT cell viability assay
Format: cell-based
protocol conditions: human, HaCaT cells (immortal keratinocytes), HaCaT normal cell line, 72 h (table footnote), read-out: Cytotoxic activity IC50 (converted)

Q: Item under review: COc1ccc(C=Nn2c(-c3cccc(F)c3)n[nH]c2=S)cc1 [RO4] . Reported IC50 at 72 h?
Ans: > 100 µM

Q: Item under review: Fc1ccc(C=Nn2c(-c3cccc(F)c3)n[nH]c2=S)cc1 [RO7] . Reported IC50 at 72 h?
Ans: > 100 µM

Q: Item under review: Cc1cccc(C=Nn2c(-c3cccc(F)c3)n[nH]c2=S)c1 [RO9] . Reported IC50 at 72 h?
Ans: > 100 µM
